All figures here come from ChEMBL document CHEMBL4402609.

experiment: AUC in C57BL/6J mouse blood infected with Mycobacterium tuberculosis H37Rv at 200 mg/kg, po administered once daily for 4 consecutive days starting from 5 days post infection and measured after 24 hrs post dose
Format: ADME, organism-based
Set-up: dose 200 mg/kg, time < 24 hr, route oral
assayReadout: AUC at 24 h (ng·h/mL)
# value in ng·h/mL; strip the unit string

Request: May I ask what AUC at 24 h has been recorded for CC1(c2ccc(S(N)(=O)=O)cc2)NC(=O)N(CC(=O)c2ccc(F)cc2F)C1=O (racemic) ?
Response: 31400

----------
experiment: AUC in C57BL/6J mouse blood infected with Mycobacterium tuberculosis H37Rv at 170 mg/kg, po administered once daily for 4 consecutive days starting from 5 days post infection and measured up to 6 hrs post dose
Type: ADME, organism-based
Parameters: time < 6 hr, dose 170 mg/kg, route oral
assayReadout: AUC at 6 h (ng·h/mL)
Record the value in ng·h/mL, omitting the unit from your answer.

Request: Data request, read-out AUC at 6 h, for CC1(c2ccc(-n3cnnn3)cc2)NC(=O)N(CC(=O)c2ccc(F)cc2F)C1=O (stereo unspecified)
Response: 6380

----------
experiment: Lipophilicity, log D of compound at pH 7.4 by chromatographic method
Assay type: physicochemical
testParameters: buffer
Consider the following molecules and their measured chromatographic logD readings.
Reply: number alone, nothing else.

[[record]]
molecule = "Cc1ccccc1C(=O)CN1C(=O)NC(C)(c2ccc(C#N)cc2)C1=O (racemic)"
quantitativeresult = 4.73

[[record]]
molecule = "CC1(c2ccc(C#N)cc2)NC(=O)N(CC(=O)c2ccncc2)C1=O (racemic)"
quantitativeresult = 1.16

[[record]]
molecule = "CCCCS(=O)(=O)Nc1ccc(C2(C)NC(=O)N(CC(=O)c3ccc(F)cc3F)C2=O)cc1 (racemic)"
quantitativeresult = 4.96


Request: Any idea what its chromatographic logD is? The molecule is CC1(c2ccc(S(N)(=O)=O)cc2)NC(=O)N(CC(=O)c2ccc(F)c(Cl)c2)C1=O (racemic)
Response: 3.82

Request: # iterate: CC1(c2ccc(C#N)cc2)NC(=O)N(CC(=O)c2ccc(F)c(C(F)(F)F)c2)C1=O (racemic)
Response: 5.38

Request: Next molecule: CC1(c2ccc(S(N)(=O)=O)cc2)NC(=O)N(CC(=O)c2ccc(F)cc2O)C1=O (racemic)
Response: 3.12

Request: And CC1(c2ccc(S(N)(=O)=O)cc2)NC(=O)N(CC(=O)c2ccccc2C(F)(F)F)C1=O (racemic) ?
Response: 3.56

Request: // query: Cc1ccc(C(=O)CN2C(=O)NC(C)(c3ccc(S(N)(=O)=O)cc3)C2=O)cc1 (racemic)
Response: 3.33

Request: Another molecule to check: C[C@]1(c2ccc(S(N)(=O)=O)cc2)NC(=O)N(CC(=O)c2ccc(F)cc2F)C1=O
Response: 3.17
